Tested on: RXF 393
Assay: NCI tumour cell line growth inhibition, 48 h
Activity calls are given as the source filed them. No stated cut-off is given here; in the data, active = GI50 up to about 1.1 µM and inactive = higher.
We begin with a simple list: items and their reported GI50.

>  <MOLECULE>
CSCC[C@@H](NC(=O)[C@H](CC(C)C)NC(=O)C(Cc1cnc[nH]1)NC(=O)CNC(=O)[C@@H](NC(=O)[C@H](C)NC(=O)[C@H](Cc1cn(C=O)c2ccccc12)NC(=O)[C@H](CCC(N)=O)NC(=O)[C@@H](N)CC(N)=O)C(C)C)C(N)=O (stereo partly specified)

>  <GI50>
> 100 µM (inactive)

$$$$
>  <MOLECULE>
O=C1C=C/C(=N/c2cccc3c(/N=C4/C=CC(=O)O4)cccc23)O1

>  <GI50>
20.7 µM (inactive)

$$$$
>  <MOLECULE>
COC(=O)CCC(=O)CC(=O)C(=O)Nc1c(Cl)cc([N+](=O)[O-])cc1Cl

>  <GI50>
> 100 µM (inactive)

$$$$
>  <MOLECULE>
CN(C)CCn1c(=O)oc2cc(C(=O)CN3CCOCC3)ccc21

>  <GI50>
> 100 µM (inactive)

$$$$
>  <MOLECULE>
COc1ccc(C)cc1Nc1nnc(-c2ccccc2N)s1

>  <GI50>
55.1 µM (inactive)

$$$$
>  <MOLECULE>
c1ccc(CSc2nc(N3CCOCC3)c3cn[nH]c3n2)cc1

>  <GI50>
6.1 µM (inactive)

$$$$
>  <MOLECULE>
Cc1c2ccccc2c(C2C3C(=O)N(c4ccc(Br)cc4)C(=O)C3ON2C(C(N)=O)c2ccccc2)c2ccccc12 (stereo unspecified)

>  <GI50>
11.7 µM (inactive)

$$$$
>  <MOLECULE>
COc1ccc2c(c1)Cc1cc(/N=[N+](\[O-])c3ccc4c(c3)Cc3cc(OC)ccc3-4)ccc1-2

>  <GI50>
57.7 µM (inactive)

$$$$
>  <MOLECULE>
CCCC(S(=O)(=O)c1ccccc1)S(=O)(=O)c1ccccc1

>  <GI50>
> 100 µM (inactive)

$$$$
>  <MOLECULE>
Cc1cc2c(c(C(=O)NCCC(=O)N[C@@H](C)C(=O)OCc3ccccc3)c1)Oc1c(cc(C)cc1C(=O)NCCC(=O)N[C@@H](C)C(=O)OCc1ccccc1)S2

>  <GI50>
38.5 µM (inactive)

$$$$
>  <MOLECULE>
Cc1ccc(C2=CC(=O)c3ccccc3C2=O)n1-c1ccccc1

>  <GI50>
> 100 µM (inactive)

$$$$
>  <MOLECULE>
CCOC(=O)[C@H]1Nc2ccc(O)cc2C2c3ccccc3CC21 (stereo partly specified)

>  <GI50>
17.7 µM (inactive)

$$$$
>  <MOLECULE>
COC(=O)N1CC2(CO)C3CC=C(C(=O)Nc4ccccc4Br)C2C1C3Br (stereo unspecified)

>  <GI50>
> 50 µM (inactive)

$$$$
>  <MOLECULE>
S=C(N1CCN(c2ccc(Cl)c(Cl)c2)CC1)N1CCN(c2ccc(Cl)c(Cl)c2)CC1

>  <GI50>
14.3 µM (inactive)

$$$$
>  <MOLECULE>
Cc1ccc(C)n1-n1c(Cc2ccccc2)n[nH]c1=O

>  <GI50>
> 100 µM (inactive)

$$$$
>  <MOLECULE>
CC(=O)Nc1ccc2c(C)c3c(nc2n1)[nH]c1ccccc13

>  <GI50>
33.6 µM (inactive)

$$$$
>  <MOLECULE>
Cc1ccc(S(=O)(=O)C2CC2(Cl)Cl)cc1 (stereo unspecified)

>  <GI50>
15.1 µM (inactive)

$$$$
>  <MOLECULE>
COc1ccccc1-c1cc(O)c2cc(C)cnc2n1

>  <GI50>
33.4 µM (inactive)

$$$$
>  <MOLECULE>
NC(=O)C(=O)n1ncc(Cl)c(Cl)c1=O

>  <GI50>
> 23.5 µM (inactive)

$$$$
>  <MOLECULE>
COc1cccc(/C=C/c2cnc3ccccc3n2)c1OC

>  <GI50>
21.8 µM (inactive)

$$$$
>  <MOLECULE>
CC(C)(Oc1ccc(-c2cccc3ccccc23)cc1)C(=O)O

>  <GI50>
> 100 µM (inactive)

$$$$
>  <MOLECULE>
CC(=O)N(CCCCNC(=O)C(F)(F)F)CCCNC(=O)C(F)(F)F

>  <GI50>
> 100 µM (inactive)

$$$$
>  <MOLECULE>
COP(=O)(OC)C(O)CC(C)C (stereo unspecified)

>  <GI50>
> 100 µM (inactive)

$$$$
>  <MOLECULE>
COCN1CCN=c2c1c1c3c(c4ccccc4n23)CCC1

>  <GI50>
> 100 µM (inactive)

$$$$
>  <MOLECULE>
COc1ccc(-c2cc(-c3ccccc3)c3c(n2)-c2ccccc2NC(=O)C3)cc1

>  <GI50>
30.2 µM (inactive)

$$$$
>  <MOLECULE>
COc1cc(/C=C2\C(=O)N(c3ccccc3)C(c3ccccc3)S2(=O)=O)cc(OC)c1OC (stereo unspecified)

>  <GI50>
17.1 µM (inactive)

$$$$
>  <MOLECULE>
COc1ccc(/[N+]([O-])=C/c2ccc(OC(=S)S)c(OC)c2)cc1

>  <GI50>
19.6 µM (inactive)

$$$$
>  <MOLECULE>
Cc1nc(C)c(N2CCN([N+](=O)[O-])CC2)c(O)n1

>  <GI50>
> 100 µM (inactive)

$$$$
>  <MOLECULE>
CN(C)/C=N/S(=O)(=O)c1nn2c(C=O)c(-c3ccccc3)nc2s1

>  <GI50>
13 µM (inactive)

$$$$
>  <MOLECULE>
O=S(=O)(OI(OI(OS(=O)(=O)C(F)(F)F)c1ccccc1)c1ccccc1)C(F)(F)F

>  <GI50>
17.3 µM (inactive)

$$$$
>  <MOLECULE>
CCSC12CC3c4cccc5c4C(CN5C(=O)c4ccccc4)CC3(O1)N(C)C2=O (stereo unspecified)

>  <GI50>
71.1 µM (inactive)

$$$$

Source: ChEMBL document CHEMBL1201862
